- tested.on: Jun bZIP R263A;Fos bZIP K153A (human;human, UniProt P05412;P01100 252-315;137-200, R263A|K153A)
- Sequence (P05412 252-315 R263A, chain 1 of 2): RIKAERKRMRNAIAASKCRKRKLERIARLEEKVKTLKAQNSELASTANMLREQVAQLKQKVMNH
- Sequence (P01100 137-200 K153A, chain 2 of 2): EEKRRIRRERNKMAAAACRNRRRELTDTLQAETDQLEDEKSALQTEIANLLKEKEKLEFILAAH
- experiment: ITC
pKd: −log10 of the molar value.
property: pKd

>>> readout_number("TRE duplex 15-mer (dsDNA) DNA 1: CGCGTGACTCACCCC DNA 2: GGGGTGAGTCACGCG")
5.94
